# assay-remarks: Tissue distribution of curcumin and THC at necropsy 15 minutes post-infusion
# Parameters: species or system Beagle dogs
# experimental-context: both sexes, beagle, dog, in vivo, 10 mg/kg, Eight hour infusion; H3PO4 stabilized; read-out: Average tissue concentration, Heart
readout-label: concentration at 15 min

compound: COc1cc(CCC(=O)CC(=O)CCc2ccc(O)c(OC)c2)ccc1O [THC, tetrahydrocurcumin]
value-reported: 0.03 ng/g

====

# assay-remarks: in vivo
# Design: species or system Beagle dogs
# experimental-context: both sexes, Beagle, dog, in vivo, Tissue level, Brain Stem

molecule: COc1cc(/C=C/C(=O)CC(=O)/C=C/c2ccc(O)c(OC)c2)ccc1O [Curcumin, reference compound]
concentration at 15 min (ng/g): 0.3

====

# assay-remarks: Tissue distribution of curcumin and THC at necropsy 15 minutes post-infusion
# Set-up: species or system Beagle dogs
# experimental-context: both sexes, beagle, dog, in vivo, 10 mg/kg, Table 15, 2 hour infusion; +H3PO4; read-out: Tissue analysis, Striatum

molecule: COc1cc(CCC(=O)CC(=O)CCc2ccc(O)c(OC)c2)ccc1O [THC, tetrahydrocurcumin]
measurement-units: ng/g
concentration at 15 min: 3.13

====

# assay-remarks: Plasma pharmacokinetics of curcumin and THC during and after intravenous infusion of liposomal curcumin
# Assay type: in vivo, Beagle dogs
# experimental-context: both sexes, beagle, dog, in vivo, iv, 10 mg/kg, 2 hour i.v. infusion, total dose 10 mg/kg; fitted, first-order elimination infusion model; read-out: Cmax (estimated PK parameter)
readout-label: Cmax (ng/mL)

compound: COc1cc(CCC(=O)CC(=O)CCc2ccc(O)c(OC)c2)ccc1O [THC, tetrahydrocurcumin]
measurement-units: ng/mL
value-reported: 2430

====

# assay-remarks: Plasma, urine and bile levels of curcumin and THC 15 minutes post-infusion
# Type: in vivo, Beagle dogs
# experimental-context: both sexes, Beagle, dog, in vivo, 10 mg/kg, 15 min after 8 hour infusion; no H3PO4; mean±SE; read-out: Urine level

compound: COc1cc(CCC(=O)CC(=O)CCc2ccc(O)c(OC)c2)ccc1O [THC, tetrahydrocurcumin]
concentration at 15 min, ng/mL: 2450

====

# assay-remarks: Tissue distribution of curcumin and THC at necropsy 15 minutes post-infusion
# Parameters: species or system Beagle dogs
# experimental-context: both sexes, beagle, dog, in vivo, 10 mg/kg, 2 hr infusion; H3PO4 stabilized; read-out: Kp [tissue]/[plasma], Liver

compound: COc1cc(CCC(=O)CC(=O)CCc2ccc(O)c(OC)c2)ccc1O [THC, tetrahydrocurcumin]
Kp at 2 h: 0.0028

====

# assay-remarks: Tissue distribution of curcumin and THC at necropsy 15 minutes post-infusion
# Set-up: species or system Beagle dogs
# experimental-context: both sexes, beagle, dog, in vivo, 10 mg/kg, Two hour infusion; H3PO4 stabilized; read-out: Average tissue concentration, Bladder

molecule: COc1cc(CCC(=O)CC(=O)CCc2ccc(O)c(OC)c2)ccc1O [THC, tetrahydrocurcumin]
measurement-units: ng/g
concentration at 15 min: 2.25

====

# assay-remarks: Plasma pharmacokinetics of curcumin and THC during and after intravenous infusion of liposomal curcumin
# Assay type: in vivo, Beagle dogs
# experimental-context: both sexes, Beagle, dog, in vivo, 10 mg/kg, 1.25 mg/kg/hr; 90 min; mean±SE; read-out: [Plasma + PO4]

molecule: COc1cc(CCC(=O)CC(=O)CCc2ccc(O)c(OC)c2)ccc1O [THC, tetrahydrocurcumin]
concentration at 90 min / ng/mL: 293

Data provenance is patent US9170257B2.
